System: MS2 coat protein
Assay: apparent KD of MS2 coat protein, switch ON state; designed switch direction (-1 OFF switch, 1 ON switch): -1; higher = weaker reporter binding
Details: FMN input: 0 or 200 uM; Eterna round: R93 (includes R88 designs)
READOUT_TYPE: apparent KD of MS2 coat protein (nM)
Value expressed in nM; do not type the unit.

Query block: I have this sequence here, AGCAAGUGAGGAUAUGCGAAGUCAGGACAAACACUGACGAAGCAGAAGGCACAUGAGGAUCACCCAUGUAAGCA [Mat - Exaclusion 4 - Eli mod - D60] , and I need its recorded apparent KD of MS2 coat protein.
Result block: 28.8

Query block: Also CUCAAGUGAGGAUAUCAGUAGUAAAAAAAUAAAAUUACUACUGAGAAGGCACAUGAGGAUCACCCAUGUGUCUU [EX4 333: Super Stable 33] , if possible.
Result block: 14.1

Query block: How about this sequence: AAGAGUACAGGAUAUAUGUGAAAAGAGUCGAAAGACUCGGGACAUGAGGAUCACCCAUGUAGAAGGGUACUCAA [Diamond 75]
Result block: 75.7

Query block: Same lookup for AAAAAGUGAGGAUAUGCGCUGUGGAGUAGACACGACCAGUCGUAGAAGGCACAUGAGGAUCACCCAUGUUCAAA [EX4 Malc#21] , please.
Result block: 27.4

Query block: Continue with AGCAAGUCAGGAUAUACGAACAAGACAAAAGACGAGAAGGGACAUGAGGAUCACCCAUGUAGAAGGGACAAGCA [74%, Web mod - With 5 less U's]
Result block: 61.9

Query block: Here is the next sequence: AAGAAGUCAGGAUAUACUAAAGAAAUAAAAAGAAAGAAAGAACAUGAGGAUCACCCAUGUAGAAGGGACAAGAA [Sewadjare Mentuhotep V]
Result block: 67.4

Query block: What about this sequence? UAUAGACAUGAGGAUCACCCAUGUGAGGAUAUCGGUGACUACAGGACAUCACGUACAAUGAGAAGGCACAGAAA [JR_Exc001_Sub017]
Result block: 40.3

Query block: And the next one, CUCAAGUAAGGAUAUGUAAGAAAAGAAGAGAAAGAAAAGAAACAGAAGGUACAUGAGGAUCACCCAUGUAAGAA [EteRNA is fun!] ?
Result block: 30.4

Query block: Now the same for CUUGUGUGAGGAUAUGUAAAAUGAAUAAGCAGUUCUAAAAGGCAGAAGGUACAUGAGGAUCACCCAUGUGAAAA [Inza]
Result block: 39.3

Query block: Moving on to AAUAAUGGAGGAUAUACUAAAGAAAUGAAAAGAAAUAAAGAACAUGAGGAUCACCCAUGUAGAAGGCCAAAUAA [Khamure]
Result block: 26

Query block: # iterate: GGUGGCGUAGGAUAUACAUGAGGAUCACCCAUGUGAGAGAAAAAAGUGAGAAAGAAAAGUAGAAGGACGUUACG [salish99-ex3-126]
Result block: 40.3

Query block: Now give it for ACUAACAGAGGAUAUACUAACAAACCUCAAACAUACAUCAAACAUGAGGAUCACCCAUGUAGAAGGCUGAAACU [JR_Exc002_Sub005] too.
Result block: 26.7

Query block: Then this sequence: AAGUUGGGAGGAUAUAUAUGGACACACAUUGGUGUAGAACUACAUGAGGAUCACCCAUGUAGAAGGCCCAAAUA [AJ 57]
Result block: 20.3
